Please respond with reported CC50 at 24 h for every item in the list.
- Protocol: MTT cytotoxicity assay in U937 cells
- Assay type: cell-based
- Assay Conditions: human; U937 cells, 24 hours, MTT
# value in µM; strip the unit string

Requested read-out: CC50 at 24 h. Entry: "CC(C)[C@H](c1nc2ccccc2n1Cc1cn(-c2ccc(F)cc2)nn1)N1C(=O)c2ccccc2C1=O"
0.78

Requested read-out: CC50 at 24 h. Entry: "CC[C@@H](C)[C@H](c1nc2ccccc2n1Cc1cn(-c2ccc(F)cc2)nn1)N1C(=O)c2ccccc2C1=O"
28.8

Requested read-out: CC50 at 24 h. Entry: "CC(C)C[C@H](c1nc2ccccc2n1Cc1cn(-c2ccccc2)nn1)N1C(=O)c2ccccc2C1=O"
0.91

Requested read-out: CC50 at 24 h. Entry: "CC(C)C[C@H](c1nc2ccccc2n1Cc1c[nH]nn1)N1C(=O)c2ccccc2C1=O"
2.08

* * *

- Protocol: MTT cytotoxicity assay in U937 cells
- Type: cell-based
- Assay Conditions: human, U937 cells (CC50) versus 3D7 parasites (IC50); CC50 U937 / IC50 3D7; SI > 2 = low cytotoxicity; read-out: selectivity index (SI)
Property Measured: selectivity ratio at 24 h
Answer with the value's number alone.

Requested read-out: selectivity ratio at 24 h. Entry: "CC(C)C[C@H](c1nc2ccccc2n1Cc1cn(-c2ccccc2)nn1)N1C(=O)c2ccccc2C1=O"
1.01

Requested read-out: selectivity ratio at 24 h. Entry: "CC(C)[C@H](c1nc2ccccc2n1Cc1cn(-c2ccc(F)cc2)nn1)N1C(=O)c2ccccc2C1=O"
1.11

* * *

- Tested on: P. falciparum 3D7 (Pf3D7), CQ sensitive
- Protocol: SYBR Green I growth inhibition assay, asynchronous P. falciparum 3D7 culture
- Type: cell-based, Plasmodium falciparum
- Assay Conditions: Pf3D7, asynchronous culture, SYBR Green, mean of three experiments; NDR / No IC50 = no dose response
Property Measured: IC50 (SE) µM

[
  {
    "Smiles Code": "CCOC(=O)Cn1cc(Cn2c([C@@H]([C@H](C)CC)N3C(=O)c4ccccc4C3=O)nc3ccccc32)nn1",
    "IC50 (SE) µM": "No IC50"
  },
  {
    "Smiles Code": "CC(C)C[C@H](c1nc2ccccc2n1Cc1cn(-c2ccc(Cl)cc2)nn1)N1C(=O)c2ccccc2C1=O",
    "IC50 (SE) µM": "NDR"
  },
  {
    "Smiles Code": "COc1ccc(-n2cc(Cn3c([C@@H](CC(C)C)N4C(=O)c5ccccc5C4=O)nc4ccccc43)nn2)cc1",
    "IC50 (SE) µM": "NDR"
  },
  {
    "Smiles Code": "CC[C@@H](C)[C@H](c1nc2ccccc2n1Cc1c[nH]nn1)N1C(=O)c2ccccc2C1=O",
    "IC50 (SE) µM": "No IC50"
  },
  {
    "Smiles Code": "CCOC(=O)Cn1cc(Cn2c([C@@H](C(C)C)N3C(=O)c4ccccc4C3=O)nc3ccccc32)nn1",
    "IC50 (SE) µM": "No IC50"
  }
]

Requested read-out: IC50 (SE) µM. Entry: "CC[C@@H](C)[C@H](c1nc2ccccc2n1Cc1cn(-c2ccccc2)nn1)N1C(=O)c2ccccc2C1=O"
NDR

Requested read-out: IC50 (SE) µM. Entry: "CC[C@@H](C)[C@H](c1nc2ccccc2n1Cc1cn(-c2ccc(Cl)cc2)nn1)N1C(=O)c2ccccc2C1=O"
NDR

Requested read-out: IC50 (SE) µM. Entry: "CC(C)[C@H](c1nc2ccccc2n1Cc1cn(-c2ccc(Cl)cc2)nn1)N1C(=O)c2ccccc2C1=O"
NDR
